The origin of these recorded values is patent US20180334496A1.

I'd appreciate it if you could supply Kd values for the items below.
target: T1, recombinant cynomolgus CFD, His-tagged (cynomolgus); test: SPR MX96
T1 construct: also called rcyCFD-His; recombinant Cyno-CFD
Answers are plain numbers, in nM.

// solved cases for Kd follow
>  <BINDER>
KCD123 (antibody, V domains shown, chimeric) VH: EVHLQQSGPELVKPGASVKISCKASGYTFTDFYKNWMRQRHGESLEWIGDINPNNGGTNYNQKFKGKATLTVDKSSSTAYMELRSLTSEDSAVYYCAREGPSFAYWGQGTLVTVSA VL: DVLMTQTPLSLPVSLGDQASISCRSSQTIVHSNGDTYLEWYLQKPGQSPNLLIYKVSNRFSGVPDRFSGSGSGTDFTLKISRVEAEDLGVYYCFQGSHVPPTFGGGTKLEIK

>  <UNIT OF MEASUREMENT>
nM

>  <Kd>
2.9

$$$$
>  <BINDER>
KCD006 (antibody, V domains shown) VH: EVQLQQSGAELVKPGASVKLSCTASGFKIKDTYMHWVKERPEQGLEWIGRIDPANGNTKYDPKFQGKATITADTSSNTAYLQLSSLTSEDTAVYYCANAMDYWGQGTSVTVSS VL: QIILTQSPAIMSASPGEKVTMTCSARSSVSNMYWYQQKPGSSPRLLIYDTSNLASGVPVRFSGSGSGTSYSLTISRMEAEDAATYYCQQWSSYPWTFGGGTKLEIK

>  <UNIT OF MEASUREMENT>
nM

>  <Kd>
150

$$$$

Shift focus to the following entry.
Read off the recorded Kd for KCD017 (antibody, V domains shown) VH: DVQLQESGPDLVKPSQSLSLTCTVTDYSITSGYSWHWIRQFPGNKLEWLGYIHSSGNTNYNPSLKSRFSITRDTSKNQFFLQLNSVTSEDTATYYCALHYYGSSFGWYFDVWGAGTTVTVSS VL: DIVMTQSHKFMSTSVGDRVYITCKASQDVGTAVAWYQQTSGQSPKLLIYWASTRHTGVPDRFTGSGSGTDFTLTLSNVQSEDLADYFCQQYTSYPLTFGAGTKLELK
11
